Please respond with reported log10 IC50 for every item in the list.
# study target: HLA-A2.1 (Homo sapiens, UniProt P04439, D140Y/D185E/D98H/E176V/E277Q/G131W/G231S/I119V/I121R/I166T/I218V/L300P/L318F/N151K/N90K/P208A/P217A/Q86G/Q94H/R138H/R169H/T345S)
# assay comment: HLA-A2.1 binding assay of modified peptides, inhibition of radiolabeled Hbc 18-27 (Example 5)
# cond: modified gp100 G9-154 peptides; read-out: Binding affinity to HLA-A2.1
Where a SMILES comes first, the peptide text is derived from it.
Record value = log10 of IC50 given in nM.

1. CC(C)[C@H](NC(=O)[C@H](CCC(N)=O)NC(=O)[C@H](Cc1c[nH]c2ccccc12)NC(=O)[C@H](Cc1ccc(O)cc1)NC(=O)[C@H](CCC(N)=O)NC(=O)CNC(=O)[C@H](Cc1ccc(O)cc1)NC(=O)[C@@H](NC(=O)[C@@H](N)CCCCN)[C@@H](C)O)C(=O)O [G9-154-3Y] (H-KTYGQYWQV-OH; N-terminus and C-terminus assumed)    1.48
2. CC[C@H](C)[C@H](NC(=O)[C@@H](N)CCCCN)C(=O)N[C@@H](Cc1c[nH]c2ccccc12)C(=O)NCC(=O)N[C@@H](CCC(N)=O)C(=O)N[C@@H](Cc1ccc(O)cc1)C(=O)N[C@@H](Cc1c[nH]c2ccccc12)C(=O)N[C@@H](CCC(N)=O)C(=O)N[C@H](C(=O)O)C(C)C [G9-154-2I] (H-KIWGQYWQV-OH; N-terminus and C-terminus assumed)    0.48
3. CC(C)C[C@H](NC(=O)[C@@H](N)CC(C)C)C(=O)N[C@@H](Cc1c[nH]c2ccccc12)C(=O)NCC(=O)N[C@@H](CCC(N)=O)C(=O)N[C@@H](Cc1ccc(O)cc1)C(=O)N[C@@H](Cc1c[nH]c2ccccc12)C(=O)N[C@@H](CCC(N)=O)C(=O)N[C@H](C(=O)O)C(C)C [G9-154-1L2L] (H-LLWGQYWQV-OH; N-terminus and C-terminus assumed)    0.20
4. CC(C)[C@H](NC(=O)[C@H](CCC(N)=O)NC(=O)[C@H](Cc1c[nH]c2ccccc12)NC(=O)[C@H](Cc1ccc(O)cc1)NC(=O)[C@H](CCC(N)=O)NC(=O)CNC(=O)[C@H](Cc1c[nH]c2ccccc12)NC(=O)[C@@H](NC(=O)[C@@H](N)Cc1ccc(O)cc1)[C@@H](C)O)C(=O)O    0.40
5. CC(C)C[C@H](NC(=O)[C@@H](N)CCCCN)C(=O)N[C@@H](Cc1c[nH]c2ccccc12)C(=O)NCC(=O)N[C@@H](CCC(N)=O)C(=O)N[C@@H](Cc1ccc(O)cc1)C(=O)N[C@@H](Cc1c[nH]c2ccccc12)C(=O)N[C@@H](CCC(N)=O)C(=O)N[C@H](C(=O)O)C(C)C [G9-154-2L] (H-KLWGQYWQV-OH; N-terminus and C-terminus assumed)    0.30

List the reported log10 IC50 of each compound below.
1. CC(C)C[C@H](N)C(=O)N[C@H](C(=O)N[C@@H](Cc1c[nH]c2ccccc12)C(=O)NCC(=O)N[C@@H](CCC(N)=O)C(=O)N[C@@H](Cc1ccc(O)cc1)C(=O)N[C@@H](Cc1c[nH]c2ccccc12)C(=O)N[C@@H](CCC(N)=O)C(=O)N[C@H](C(=O)O)C(C)C)[C@@H](C)O [G9-154-1L] (H-LTWGQYWQV-OH; N-terminus and C-terminus assumed)
2. CC(C)[C@H](NC(=O)[C@H](CCC(N)=O)NC(=O)[C@H](Cc1c[nH]c2ccccc12)NC(=O)[C@H](Cc1ccc(O)cc1)NC(=O)[C@H](CCC(N)=O)NC(=O)CNC(=O)[C@H](Cc1ccccc1)NC(=O)[C@@H](NC(=O)[C@@H](N)CCCCN)[C@@H](C)O)C(=O)O [G9-154-3F] (H-KTFGQYWQV-OH; N-terminus and C-terminus assumed)
3. CSCC[C@H](NC(=O)[C@@H](N)CCCCN)C(=O)N[C@@H](Cc1c[nH]c2ccccc12)C(=O)NCC(=O)N[C@@H](CCC(N)=O)C(=O)N[C@@H](Cc1ccc(O)cc1)C(=O)N[C@@H](Cc1c[nH]c2ccccc12)C(=O)N[C@@H](CCC(N)=O)C(=O)N[C@H](C(=O)O)C(C)C [G9-154-2M] (H-KMWGQYWQV-OH; N-terminus and C-terminus assumed)
4. CC(C)[C@H](NC(=O)[C@H](CCC(N)=O)NC(=O)[C@H](Cc1c[nH]c2ccccc12)NC(=O)[C@H](Cc1ccc(O)cc1)NC(=O)[C@H](CCC(N)=O)NC(=O)CNC(=O)[C@H](Cc1c[nH]c2ccccc12)NC(=O)[C@@H](NC(=O)[C@@H](N)Cc1ccccc1)[C@@H](C)O)C(=O)O [G9-154-1F] (H-FTWGQYWQV-OH; N-terminus and C-terminus assumed)

1. 0.53
2. 1.32
3. 0.81
4. 0.20

Give me log10 IC50 for each of these compounds, listed below.
1. CC(C)C[C@H](NC(=O)[C@@H](N)Cc1c[nH]c2ccccc12)C(=O)N[C@@H](Cc1c[nH]c2ccccc12)C(=O)NCC(=O)N[C@@H](CCC(N)=O)C(=O)N[C@@H](Cc1ccc(O)cc1)C(=O)N[C@@H](Cc1c[nH]c2ccccc12)C(=O)N[C@@H](CCC(N)=O)C(=O)N[C@H](C(=O)O)C(C)C [G9-154-1W2L] (H-WLWGQYWQV-OH; N-terminus and C-terminus assumed)
2. CC(C)[C@H](NC(=O)[C@H](CCC(N)=O)NC(=O)[C@H](Cc1c[nH]c2ccccc12)NC(=O)[C@H](Cc1ccc(O)cc1)NC(=O)[C@H](CCC(N)=O)NC(=O)CNC(=O)[C@H](Cc1c[nH]c2ccccc12)NC(=O)[C@@H](NC(=O)[C@H](C)N)[C@@H](C)O)C(=O)O [G9-154-1A] (H-ATWGQYWQV-OH; N-terminus and C-terminus assumed)

1. 0.45
2. 0.72

* * *

# Tested on: T2 cell lines preincubated with peptide
# assay comment: Recognition of modified peptides by natural epitope (M9-2, G9-154, G9-209, G9-280) reactive T-cells, 51Cr release on peptide-pulsed T2 cells (Example 5)
# Type: cell-based, human
Where a SMILES comes first, the peptide text is derived from it.
measured metric: Recognition by G9-154 reactive T-cell

# example entries with known answers
1. CC(C)C[C@H](NC(=O)[C@@H](N)CCCCN)C(=O)N[C@@H](Cc1c[nH]c2ccccc12)C(=O)NCC(=O)N[C@@H](CCC(N)=O)C(=O)N[C@@H](Cc1ccc(O)cc1)C(=O)N[C@@H](Cc1c[nH]c2ccccc12)C(=O)N[C@@H](CCC(N)=O)C(=O)N[C@H](C(=O)O)C(C)C [G9-154-2L] (H-KLWGQYWQV-OH; N-terminus and C-terminus assumed)    + (+, recognized)
2. CSCC[C@H](NC(=O)[C@@H](N)CCCCN)C(=O)N[C@@H](Cc1c[nH]c2ccccc12)C(=O)NCC(=O)N[C@@H](CCC(N)=O)C(=O)N[C@@H](Cc1ccc(O)cc1)C(=O)N[C@@H](Cc1c[nH]c2ccccc12)C(=O)N[C@@H](CCC(N)=O)C(=O)N[C@H](C(=O)O)C(C)C [G9-154-2M] (H-KMWGQYWQV-OH; N-terminus and C-terminus assumed)    + (+, recognized)
3. CC(C)C[C@H](NC(=O)[C@@H](N)Cc1ccccc1)C(=O)N[C@@H](Cc1c[nH]c2ccccc12)C(=O)NCC(=O)N[C@@H](CCC(N)=O)C(=O)N[C@@H](Cc1ccc(O)cc1)C(=O)N[C@@H](Cc1c[nH]c2ccccc12)C(=O)N[C@@H](CCC(N)=O)C(=O)N[C@H](C(=O)O)C(C)C [G9-154-1F2L] (H-FLWGQYWQV-OH; N-terminus and C-terminus assumed)    −
4. CC(C)[C@H](NC(=O)[C@H](CCC(N)=O)NC(=O)[C@H](Cc1c[nH]c2ccccc12)NC(=O)[C@H](Cc1ccc(O)cc1)NC(=O)[C@H](CCC(N)=O)NC(=O)CNC(=O)[C@H](Cc1c[nH]c2ccccc12)NC(=O)[C@@H](NC(=O)[C@@H](N)Cc1c[nH]c2ccccc12)[C@@H](C)O)C(=O)O [G9-154-1W] (H-WTWGQYWQV-OH; N-terminus and C-terminus assumed)    −

Next, consider the following compound.
Record summary for `CC(C)[C@H](NC(=O)[C@H](CCC(N)=O)NC(=O)[C@H](Cc1c[nH]c2ccccc12)NC(=O)[C@H](Cc1ccc(O)cc1)NC(=O)[C@H](CCC(N)=O)NC(=O)CNC(=O)[C@H](Cc1c[nH]c2ccccc12)NC(=O)[C@@H](NC(=O)[C@@H](N)Cc1ccc(O)cc1)[C@@H](C)O)C(=O)O` : reported Recognition by G9-154 reactive T-cell = −
